Below: a set of entries, each annotated with reported Purity % 3 months.
assay: Long-term/accelerated stability of crystal forms (25° C. 60% RH and 40° C. 75% RH); type: physicochemical; conditions: 40° C., 75% RH, 3 months
Unit % implied. Number only.

Memo: N#Cc1ccc(N2CCC(Sc3ccc(COc4cccc5c4CN([C@H]4CCC(=O)NC4=O)C5=O)cn3)CC2)c(F)c1 [Crystal form D] , reported Purity % 3 months: 97.7

* * *

Form field: Hygroscopic weight change 0.0% RH-95.0% RH (one value per entry).
test: Hygroscopicity study of crystal forms (dynamic vapour sorption, 25° C.); type: physicochemical; conditions: 0.0% RH-95.0% RH
Text: […]
For clarity, give the value followed by its unit.

{"compound": "N#Cc1ccc(N2CCC(Sc3ccc(COc4cccc5c4CN([C@H]4CCC(=O)NC4=O)C5=O)cn3)CC2)c(F)c1 [Crystal form U]", "experimental-value": "2.06%"}

Kindly note the recorded Hygroscopic weight change 0.0% RH-95.0% RH for N#Cc1ccc(N2CCC(Sc3ccc(COc4cccc5c4CN([C@H]4CCC(=O)NC4=O)C5=O)cn3)CC2)c(F)c1 [Crystal form E] , which is 2.24%

Please fill in: Hygroscopic weight change 0.0% RH-95.0% RH reported for N#Cc1ccc(N2CCC(Sc3ccc(COc4cccc5c4CN([C@H]4CCC(=O)NC4=O)C5=O)cn3)CC2)c(F)c1 [Crystal form D] = 2.24%

Reported Hygroscopic weight change 0.0% RH-95.0% RH for N#Cc1ccc(N2CCC(Sc3ccc(COc4cccc5c4CN([C@H]4CCC(=O)NC4=O)C5=O)cn3)CC2)c(F)c1 [Crystal form Q] was 0.67%

* * *

experiment: Long-term/accelerated stability of crystal forms (25° C. 60% RH and 40° C. 75% RH); type: physicochemical; settings: onset
endpoint: Purity % Onset (%)
Numbers only here, please. The scale is %.

Answered cases to consult:
{"molecule": "N#Cc1ccc(N2CCC(Sc3ccc(COc4cccc5c4CN([C@H]4CCC(=O)NC4=O)C5=O)cn3)CC2)c(F)c1 [Crystal form Q]", "Purity % Onset / %": 99.6}
{"molecule": "N#Cc1ccc(N2CCC(Sc3ccc(COc4cccc5c4CN([C@H]4CCC(=O)NC4=O)C5=O)cn3)CC2)c(F)c1 [Crystal form D]", "Purity % Onset / %": 97.9}
{"molecule": "N#Cc1ccc(N2CCC(Sc3ccc(COc4cccc5c4CN([C@H]4CCC(=O)NC4=O)C5=O)cn3)CC2)c(F)c1 [Crystal form E]", "Purity % Onset / %": 97.9}

With those in mind, consider the next molecule.
What the record says about N#Cc1ccc(N2CCC(Sc3ccc(COc4cccc5c4CN([C@H]4CCC(=O)NC4=O)C5=O)cn3)CC2)c(F)c1 [Crystal form U] : Purity % Onset is 99.7

* * *

assay: Long-term/accelerated stability of crystal forms (25° C. 60% RH and 40° C. 75% RH); format: physicochemical; conditions: 40° C., 75% RH, 3 months
endpoint: Purity % 3 months (%)
Value expressed in %; do not type the unit.

Consider the worked cases shown below.
{"compound": "N#Cc1ccc(N2CCC(Sc3ccc(COc4cccc5c4CN([C@H]4CCC(=O)NC4=O)C5=O)cn3)CC2)c(F)c1 [Crystal form U]", "endpoint": "Purity % 3 months", "readout-unit": "%", "experimental-value": 99.6}
{"compound": "N#Cc1ccc(N2CCC(Sc3ccc(COc4cccc5c4CN([C@H]4CCC(=O)NC4=O)C5=O)cn3)CC2)c(F)c1 [Crystal form Q]", "endpoint": "Purity % 3 months", "readout-unit": "%", "experimental-value": 99.4}

Read the next record carefully.
Quick note, Purity % 3 months for N#Cc1ccc(N2CCC(Sc3ccc(COc4cccc5c4CN([C@H]4CCC(=O)NC4=O)C5=O)cn3)CC2)c(F)c1 [Crystal form E] landed at 97.8

Hey, just so you know, these numbers are from patent US20250154126A1.
